Sourced from patent US8552202B2

Listed below: improvement in in vitro potency against human cathepsin S values for each entry.
Target: Human recombinant cathepsin S (Homo sapiens (Human))
Assay: In vitro cathepsin Ki inhibition measurements, cathepsin S
Type: biochemical
Conditions: relative to Compound 7
Lab book: enter the figure in fold, no units written.

[
  {
    "ITEM SMILES": "C[C@H]1CC[C@H]([C@H](NC(=O)c2cccc(-n3cnnn3)c2)C(=O)N2C[C@H](Cl)[C@H]3OCC(=O)[C@H]32)CC1",
    "RESULT VALUE": 77
  },
  {
    "ITEM SMILES": "C[C@H]1CC[C@H]([C@H](NC(=O)c2cccc(-n3cnnn3)c2)C(=O)N2CC[C@H]3OCC(=O)[C@H]32)CC1",
    "RESULT VALUE": 2.2
  },
  {
    "ITEM SMILES": "O=C(N[C@H](C(=O)N1C[C@H](F)[C@H]2OCC(=O)[C@H]21)C1CCCCC1)c1cccc(-n2cnnn2)c1",
    "RESULT VALUE": 3.4
  },
  {
    "ITEM SMILES": "O=C(N[C@H](C(=O)N1C[C@H](Cl)[C@H]2OCC(=O)[C@H]21)C1CCCCC1)c1cccc(-n2cnnn2)c1",
    "RESULT VALUE": 47
  }
]

Field: next molecule
QUERY: Give the reported value of improvement in in vitro potency against human cathepsin S for this record: `CC1(C)CCC([C@H](NC(=O)c2cccc(-n3cnnn3)c2)C(=O)N2C[C@H](Cl)[C@H]3OCC(=O)[C@H]32)CC1`
RESULT: 15

---

Listed below: improvement in in vitro potency against human cathepsin S values for each entry.
Molecular target: Human recombinant cathepsin S (Homo sapiens (Human), UniProt P25774)
Sequence (P25774 115-331): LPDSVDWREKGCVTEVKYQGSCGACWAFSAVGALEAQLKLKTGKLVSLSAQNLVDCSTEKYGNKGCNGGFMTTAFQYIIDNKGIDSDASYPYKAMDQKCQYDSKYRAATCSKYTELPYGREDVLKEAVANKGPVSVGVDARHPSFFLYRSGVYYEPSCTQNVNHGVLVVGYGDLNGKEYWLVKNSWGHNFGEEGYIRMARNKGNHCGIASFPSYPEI
Assay: In vitro cathepsin Ki inhibition measurements, cathepsin S
Format: biochemical
Conditions: relative to Compound 1
Number only, in fold; omit the unit.

Examples with answers:
[
  {
    "COMPOUND": "O=C(N[C@H](C(=O)N1C[C@H](F)[C@H]2OCC(=O)[C@H]21)C1CCCCC1)c1ccccc1",
    "MEASUREMENT UNITS": "fold",
    "RESULT VALUE": 3.8
  },
  {
    "COMPOUND": "CC1CCC([C@H](NC(=O)c2ccccc2)C(=O)N2CC[C@H]3OCC(=O)[C@H]32)CC1 (stereo partly shown)",
    "MEASUREMENT UNITS": "fold",
    "RESULT VALUE": 3
  },
  {
    "COMPOUND": "C[C@H]1CC[C@H]([C@H](NC(=O)c2ccccc2)C(=O)N2C[C@H](Cl)[C@H]3OCC(=O)[C@H]32)CC1",
    "MEASUREMENT UNITS": "fold",
    "RESULT VALUE": 45
  }
]

As a next step, examine the compound that follows.
QUERY: Supply recorded improvement in in vitro potency against human cathepsin S for `O=C(N[C@H](C(=O)N1C[C@H](Cl)[C@H]2OCC(=O)[C@H]21)C1CCCCC1)c1ccccc1` here.
RESULT: 27

---

Molecular target: Human liver cathepsin B (Homo sapiens (Human), UniProt P07858)
Experiment: In vitro cathepsin Ki inhibition measurements, cathepsin B
Assay type: biochemical
Settings: read-out: In vitro Ki (nM) vs Cath B
Experimental: Stock solutions of substrate or inhibitor were made up to 10 mM in 100% dimethylsulfoxide (DMSO) (Rathburns, Glasgow, U.K.) and diluted as appropriately required. […] The equilibrium inhibition constants (Ki^ss) for each compound were measured under steady-state conditions monitoring enzyme activity as a function of inhibitor concentration. The values were calculated on the assumption of pure competitive behaviour (Cornish-Bowden, A. Fundamentals of enzyme kinetics Portland Press; 1995, 93-128.). […]
Catalogue of Ki values

Example compounds with recorded Ki:
[
  {
    "COMPOUND": "O=C(N[C@H](C(=O)N1C[C@H](Cl)[C@H]2OCC(=O)[C@H]21)C1CCCCC1)c1cccc(-n2ccnc2)c1",
    "TARGET ENTITY": "Human liver cathepsin B (Homo sapiens (Human), UniProt P07858)",
    "Ki": "440 nM"
  },
  {
    "COMPOUND": "C[C@H]1CC[C@H]([C@H](NC(=O)c2ccccc2)C(=O)N2C[C@H](F)[C@H]3OCC(=O)[C@H]32)CC1",
    "TARGET ENTITY": "Human liver cathepsin B (Homo sapiens (Human), UniProt P07858)",
    "Ki": "> 10000 nM"
  },
  {
    "COMPOUND": "C[C@H]1CC[C@H]([C@H](NC(=O)c2cccc(-n3cnnn3)c2)C(=O)N2C[C@H](F)[C@H]3OCC(=O)[C@H]32)CC1",
    "TARGET ENTITY": "Human liver cathepsin B (Homo sapiens (Human), UniProt P07858)",
    "Ki": "> 10000 nM"
  },
  {
    "COMPOUND": "O=C(N[C@H](C(=O)N1C[C@H](Cl)[C@H]2OCC(=O)[C@H]21)C1CCCCC1)c1ccccc1",
    "TARGET ENTITY": "Human liver cathepsin B (Homo sapiens (Human), UniProt P07858)",
    "Ki": "780 nM"
  },
  {
    "COMPOUND": "O=C(N[C@@H](CC1CCCCC1)C(=O)N1CC[C@H]2OCC(=O)[C@H]21)c1ccccc1 [compound (38), reference compound]",
    "TARGET ENTITY": "Human liver cathepsin B (Homo sapiens (Human), UniProt P07858)",
    "Ki": "> 10000 nM"
  }
]

QUERY: # return recorded Ki for entry `O=C(N[C@H](C(=O)N1C[C@H](F)[C@H]2OCC(=O)[C@H]21)C1CCCCC1)c1cccc(-n2cnnn2)c1`
RESULT: 6000 nM

---

Biological target: Human recombinant cathepsin K (Homo sapiens (Human))
Sequence (P43235 115-329): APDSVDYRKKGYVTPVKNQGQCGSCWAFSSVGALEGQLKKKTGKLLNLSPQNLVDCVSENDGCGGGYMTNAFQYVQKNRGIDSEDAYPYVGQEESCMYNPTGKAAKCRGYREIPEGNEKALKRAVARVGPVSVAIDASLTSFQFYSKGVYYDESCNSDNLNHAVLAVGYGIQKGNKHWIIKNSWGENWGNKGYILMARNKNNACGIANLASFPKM
Test: In vitro cathepsin Ki inhibition measurements, cathepsin K
Format: biochemical
Conditions: read-out: In vitro Ki (nM) vs Cath K
ENDPOINT: Ki

Reference set (5 entries):
[
  {
    "COMPOUND": "C[C@H]1CC[C@H]([C@H](NC(=O)c2cccc(-n3cnnn3)c2)C(=O)N2C[C@H](F)[C@H]3OCC(=O)[C@H]32)CC1",
    "Ki": "> 10000 nM"
  },
  {
    "COMPOUND": "C[C@H]1CC[C@H]([C@H](NC(=O)c2cccc(-n3ccnc3)c2)C(=O)N2C[C@H](F)[C@H]3OCC(=O)[C@H]32)CC1",
    "Ki": "> 10000 nM"
  },
  {
    "COMPOUND": "C[C@H]1CC[C@H]([C@H](NC(=O)c2cccc(-n3ccnc3)c2)C(=O)N2C[C@H](Cl)[C@H]3OCC(=O)[C@H]32)CC1",
    "Ki": "> 3000 nM"
  },
  {
    "COMPOUND": "CC1CCC([C@H](NC(=O)c2ccccc2)C(=O)N2CC[C@H]3OCC(=O)[C@H]32)CC1 (stereo partly drawn)",
    "Ki": "> 4800 nM"
  },
  {
    "COMPOUND": "C[C@H]1CC[C@H]([C@H](NC(=O)c2cccc(-n3cnnn3)c2)C(=O)N2C[C@H](Cl)[C@H]3OCC(=O)[C@H]32)CC1",
    "Ki": "> 8000 nM"
  }
]

Now look at this one.
QUERY: Please look at this compound and report its Ki: `C[C@H]1CC[C@H]([C@H](NC(=O)c2ccccc2)C(=O)N2C[C@H](F)[C@H]3OCC(=O)[C@H]32)CC1`
RESULT: > 10000 nM

---

Target: Human liver cathepsin L (Homo sapiens (Human), UniProt P07711)
Sequence (P07711 114-333): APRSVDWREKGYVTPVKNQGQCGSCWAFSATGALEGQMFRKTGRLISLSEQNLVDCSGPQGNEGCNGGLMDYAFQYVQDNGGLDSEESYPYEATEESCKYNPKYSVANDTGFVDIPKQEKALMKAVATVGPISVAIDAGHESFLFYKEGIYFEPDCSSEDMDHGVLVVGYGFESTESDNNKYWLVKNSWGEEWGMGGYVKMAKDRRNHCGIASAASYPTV
Assay: In vitro cathepsin Ki inhibition measurements, cathepsin L
Assay type: biochemical
Settings: read-out: In vitro Ki (nM) vs Cath L
ENDPOINT: Ki (nM)
Report the figure in nM without appending any unit label.

[
  {
    "COMPOUND": "C[C@H]1CC[C@H]([C@H](NC(=O)c2ccccc2)C(=O)N2C[C@H](Cl)[C@H]3OCC(=O)[C@H]32)CC1 [EXAMPLE 1]",
    "RESULT VALUE": 1400
  },
  {
    "COMPOUND": "O=C(N[C@H](C(=O)N1C[C@H](F)[C@H]2OCC(=O)[C@H]21)C1CCCCC1)c1cccc(-n2cnnn2)c1 [Compound 8]",
    "RESULT VALUE": 4000
  },
  {
    "COMPOUND": "C[C@H]1CC[C@H]([C@H](NC(=O)c2cccc(-n3ccnc3)c2)C(=O)N2C[C@H](Cl)[C@H]3OCC(=O)[C@H]32)CC1",
    "RESULT VALUE": 4500
  }
]

QUERY: Quote Ki with test system Human liver cathepsin L (Homo sapiens (Human), UniProt P07711) for O=C(N[C@H](C(=O)N1CC[C@H]2OCC(=O)[C@H]21)C1CCCCC1)c1ccccc1 [Compound 1]
RESULT: 1250

QUERY: State Ki (Human liver cathepsin L (Homo sapiens (Human), UniProt P07711)) of O=C(N[C@H](C(=O)N1C[C@@H](Cl)[C@H]2OCC(=O)[C@H]21)C1CCCCC1)c1cccc(-n2ccnc2)c1 [Compound 14] .
RESULT: 1900

QUERY: Provide the reported Ki (system: Human liver cathepsin L (Homo sapiens (Human), UniProt P07711)) for O=C(N[C@H](C(=O)N1C[C@H](Cl)[C@H]2OCC(=O)[C@H]21)C1CCCCC1)c1cccc(-n2ccnc2)c1 [Compound 13]
RESULT: 270

QUERY: State recorded Ki with Human liver cathepsin L (Homo sapiens (Human), UniProt P07711), entry O=C(N[C@H](C(=O)N1C[C@H](Cl)[C@H]2OCC(=O)[C@H]21)C1CCCCC1)c1ccccc1 [Compound 3] , no comment.
RESULT: 100
